Below, each entry is listed with its recorded melting point.
Counter-ions that a name gives are not always drawn.
quantityName: melting point

molecule: Cc1ccc(N)c(C#Cc2ccc(F)cc2)n1.Cl
quantityName: melting point
experimentalResult: 122 °C (dec.)
//
molecule: Cc1ccc(N)c(C#Cc2cccc(F)c2)n1.Cl
quantityName: melting point
experimentalResult: 199 to 200 °C (dec.)
//
molecule: Cc1ccc(N)c(C#Cc2cccc(C#N)c2)n1.Cl
quantityName: melting point
experimentalResult: 132.4 to 134 °C
//
molecule: Cc1cc(C)c(N)c(C#Cc2cccc(Cl)c2)n1 (as salt: hydrochloride)
quantityName: melting point
experimentalResult: 204 °C
//
molecule: Cc1ccc(N)c(C#Cc2cncc(Cl)c2)n1.Cl
quantityName: melting point
experimentalResult: 193 °C (dec.)
//
molecule: Cc1ccc(N)c(C#Cc2cccc(Cl)c2)n1.Cl
quantityName: melting point
experimentalResult: 195 °C (dec.)
//
molecule: COc1cccc(C#Cc2nc(C)ccc2N)c1
quantityName: melting point
experimentalResult: 165 to 166 °C
//
molecule: Cc1ccc(N)c(C#Cc2cc(F)cc(F)c2)n1.Cl
quantityName: melting point
experimentalResult: 212 °C (dec.)
